# Target Of Assay: JAK3 (Homo sapiens)
# Construct: made in house; host or cells: SF9 insect cells (baculovirus)
# Measurement Notes: JAK3 inhibition (Table 4)
# Format: biochemical
# Measurement Context: read-out: JAK3 Ki
Counter-ions that a name gives are not always drawn.
Quantity: Ki (nM)

{"Compound": "c1ccc(CN2CCC[C@@H](n3nnc4cnc5[nH]ccc5c43)C2)cc1 [Example 18]", "Quantitative Result": 323}
{"Compound": "Cc1nc2cnc3[nH]ccc3c2n1[C@@H]1CC[C@@H](NC(=O)OC(C)(C)C)C1 [Example 623]", "Quantitative Result": 42.7}
{"Compound": "O[C@H]1CC[C@H](n2nnc3cnc4[nH]ccc4c32)CC1 [Example 546]", "Quantitative Result": 140}
{"Compound": "Cc1nc2cnc3[nH]ccc3c2n1C1CCN(Cc2ccccc2)CC1C (racemic) [Example 151, dihydrochloride salt]", "Quantitative Result": 13.5}
{"Compound": "N#CCCC1CCC(n2c(C(O)CO)nc3cnc4[nH]ccc4c32)CC1 (stereo not drawn) [Example 1006]", "Quantitative Result": 11.3}
{"Compound": "N#Cc1cccc(CN2CCC(n3cnc4cnc5[nH]ccc5c43)CC2)c1 [Example 49]", "Quantitative Result": 26.5}
{"Compound": "Cc1nc2cnc3[nH]ccc3c2n1[C@@H](C)CO [Example 422]", "Quantitative Result": 310}
{"Compound": "CC(C)CC(=O)NC1CCC(n2nnc3cnc4[nH]ccc4c32)CC1 (stereo not drawn) [Example 883]", "Quantitative Result": 89.3}
{"Compound": "CC(C)c1nc2cnc3[nH]ccc3c2n1C1CCN(Cc2ccccc2)CC1 [Example 223]", "Quantitative Result": 8.11}

---

# Target Of Assay: JAK3 (Homo sapiens, UniProt P52333)
# Construct: made in house; host or cells: SF9 insect cells (baculovirus)
# Sequence (P52333 783-1124): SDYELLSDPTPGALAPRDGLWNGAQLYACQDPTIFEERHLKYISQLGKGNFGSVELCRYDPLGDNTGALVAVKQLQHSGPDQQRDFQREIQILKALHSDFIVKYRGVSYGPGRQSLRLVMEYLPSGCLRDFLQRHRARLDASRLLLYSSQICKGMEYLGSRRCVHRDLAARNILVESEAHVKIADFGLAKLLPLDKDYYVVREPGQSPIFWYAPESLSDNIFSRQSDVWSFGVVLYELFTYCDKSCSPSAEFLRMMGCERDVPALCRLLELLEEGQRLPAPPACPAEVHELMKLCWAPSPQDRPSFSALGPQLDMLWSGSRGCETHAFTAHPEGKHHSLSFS
# Measurement Notes: JAK3 inhibition (Table 4)
# Type: biochemical
# Measurement Context: read-out: JAK3 Ki
pKi: −log10 of the molar value.

{"Compound": "CC(C)(C)OC(=O)N1CCC[C@@H]1C(=O)N1CCC(n2cnc3cnc4[nH]ccc4c32)CC1", "pKi": 5.39}
{"Compound": "CC(O)c1nc2cnc3[nH]ccc3c2n1C1CCCN(C(=O)C2CC2(F)F)C1 (stereo not shown)", "pKi": 6.05}
{"Compound": "COC1CNCCC1n1c(C)nc2cnc3[nH]ccc3c21 (racemic)", "pKi": 6.65}
{"Compound": "CC(CC#N)N1CCC(n2c(CC3CC3)nc3cnc4[nH]ccc4c32)CC1 (racemic)", "pKi": 7.45}

---

# Target Of Assay: JAK1 (Homo sapiens)
# Construct: made in house; host or cells: SF9 insect cells (baculovirus)
# Sequence (P23458 852-1154): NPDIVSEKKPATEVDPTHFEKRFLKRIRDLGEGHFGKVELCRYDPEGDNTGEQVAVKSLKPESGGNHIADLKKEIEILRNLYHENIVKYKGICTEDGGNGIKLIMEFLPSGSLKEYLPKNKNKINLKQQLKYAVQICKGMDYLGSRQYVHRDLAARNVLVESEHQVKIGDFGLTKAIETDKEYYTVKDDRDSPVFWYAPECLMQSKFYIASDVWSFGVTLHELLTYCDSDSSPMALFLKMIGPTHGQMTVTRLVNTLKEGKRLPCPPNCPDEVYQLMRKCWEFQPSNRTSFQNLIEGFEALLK
# Measurement Notes: JAK1 inhibition (Table 4)
# Type: biochemical
# Measurement Context: read-out: JAK1 Ki
pKi: −log10 of the molar value. Where a name gives a salt, the structure may show the parent alone.

{"Compound": "N#CCC(=O)N1CCC[C@@H](n2c(C(F)(F)F)nc3cnc4[nH]ccc4c32)C1 [Example 302]", "pKi": 8.02}
{"Compound": "CCN1CC[C@@H](n2nnc3cnc4[nH]ccc4c32)[C@@H](F)C1 [Example 522]", "pKi": 7.41}
{"Compound": "CC(=O)NC1CCCC(n2cnc3cnc4[nH]ccc4c32)C1 (single isomer, unassigned) [Example 479]", "pKi": 6.89}
{"Compound": "Cc1nc2cnc3[nH]ccc3c2n1[C@H]1CC[C@H](N2CCNC2=O)CC1 [Example 598, formic acid salt]", "pKi": 8.14}
{"Compound": "C[C@@H](O)c1nc2cnc3[nH]ccc3c2n1[C@@H]1CCC[C@@H](O)C1 [Example 689]", "pKi": 8.56}
{"Compound": "O=C(Cc1nc2cnc3[nH]ccc3c2n1C1CCCOC1)N1CCC(F)(F)CC1 (racemic) [Example 978]", "pKi": 7.76}
{"Compound": "N#CCN1CCC(N[C@H]2CC[C@H](n3cnc4cnc5[nH]ccc5c43)CC2)CC1 [Example 568]", "pKi": 8.54}
{"Compound": "COC1CN(C)CCC1n1c(C)nc2cnc3[nH]ccc3c21 (racemic) [Example 534]", "pKi": 8.01}
{"Compound": "Cc1nc2cnc3[nH]ccc3c2n1C1(C)CCN(C(=O)CC#N)CC1 [Example 741]", "pKi": 6.99}
{"Compound": "N#CCCN1CCC(n2c(CC(=O)N3CCCC3)nc3cnc4[nH]ccc4c32)CC1 [Example 270]", "pKi": 7.44}
{"Compound": "c1cc2c(ncc3ncn([C@H]4CCCNC4)c32)[nH]1 [Example 364]", "pKi": 7.43}
{"Compound": "CC(O)c1nc2cnc3[nH]ccc3c2n1C1CCCN(C(=O)C2CC2(F)F)C1 (centres unmarked) [Example 790]", "pKi": 7.10}
{"Compound": "c1cc2c(ncc3ncn([C@@H]4CCCNC4)c32)[nH]1 [Example 2]", "pKi": 6.75}
{"Compound": "CN([C@H]1CC[C@H](n2cnc3cnc4[nH]ccc4c32)CC1)S(C)(=O)=O [Example 142]", "pKi": 8.32}
{"Compound": "CN(C)CCOC(=O)N[C@H]1CC[C@H](n2cnc3cnc4[nH]ccc4c32)CC1 [Example 358]", "pKi": 7.65}
{"Compound": "c1cc2c(ncc3ncn(C4CCCCNC4)c32)[nH]1 (single isomer, unassigned) [Example 110a]", "pKi": 7.87}
{"Compound": "O=C(CS(=O)(=O)c1ccccc1)N1CCC[C@@H](n2cnc3cnc4[nH]ccc4c32)C1 [Example 76]", "pKi": 7.29}
